The compounds below have reported log10 IC50 for Aromatase (Homo sapiens, UniProt P11511).
Response schema: value (number) is log10 of IC50 in units of µM.

Sample records with log10 IC50:
CCC(Cn1ccnc1)=C(c1ccc(O)cc1)c1ccc(O)cc1 = -1.46
CC(CCc1c[nH]cn1)=C(c1ccc(O)cc1)c1ccc(O)cc1 = -1.20
CCC(=C(c1ccc(O)cc1)c1ccc(O)cc1)c1cccnc1 = 0.10
CC(Cc1cccnc1)=C(c1ccc(O)cc1)c1ccc(O)cc1 = -0.06
CC(=C(c1ccc(O)cc1)c1ccc(O)cc1)c1c[nH]cn1 = -0.22
CCC(Cc1cccnc1)=C(c1ccc(O)cc1)c1ccc(O)cc1 = -1.64

Parameters: items (list). Returns: log10 IC50 for each item.
1. CC(CCc1cccnc1)=C(c1ccc(O)cc1)c1ccc(O)cc1
2. CCC(CCc1cccnc1)=C(c1ccc(O)cc1)c1ccc(O)cc1
3. CCC(CCc1c[nH]cn1)=C(c1ccc(O)cc1)c1ccc(O)cc1
4. CC(Cn1ccnc1)=C(c1ccc(O)cc1)c1ccc(O)cc1

OUT:
[0.51, -0.05, -1.28, 0.00]

IN: Given the compound "CCC(=C(c1ccc(O)cc1)c1ccc(O)cc1)c1c[nH]cn1" , what is its reported log10 IC50?
OUT: -0.02
